target: recombinant human A2A adenosine receptors (Homo sapiens, UniProt P29274); experiment: Radioligand binding assay, competition for 125I-ZM241385
Sequence (P29274 whole entry): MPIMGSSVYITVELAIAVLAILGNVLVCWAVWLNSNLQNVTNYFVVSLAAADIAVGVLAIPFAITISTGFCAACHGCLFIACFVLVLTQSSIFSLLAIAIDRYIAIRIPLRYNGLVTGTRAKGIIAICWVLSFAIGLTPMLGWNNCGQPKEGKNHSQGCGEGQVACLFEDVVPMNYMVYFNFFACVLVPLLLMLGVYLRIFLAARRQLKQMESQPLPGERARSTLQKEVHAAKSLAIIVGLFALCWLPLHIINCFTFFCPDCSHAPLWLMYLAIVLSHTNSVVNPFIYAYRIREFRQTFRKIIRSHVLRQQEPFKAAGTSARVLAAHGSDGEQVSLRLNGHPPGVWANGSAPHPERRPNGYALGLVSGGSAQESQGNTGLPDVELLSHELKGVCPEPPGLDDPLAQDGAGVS
recorded-endpoint: pKi
Please treat pKi as minus the base-10 logarithm of the molar concentration.

Input: # lookup: pKi of CCNC(=O)C1OC(n2cnc3c(N)nc(NCCc4ccc(CCC(=O)OC)cc4)nc32)C(O)C1O (stereo not shown) [JR2171]
Output: 7.35
